tested-target: native VLCAD (Mus musculus)
Construct: As for native VLCAD from MEF lysates; endogenous in cells; host or cells: SV-40-transformed wild-type mouse embryonic fibroblasts (lysate)
Sequence (P50544 42-656): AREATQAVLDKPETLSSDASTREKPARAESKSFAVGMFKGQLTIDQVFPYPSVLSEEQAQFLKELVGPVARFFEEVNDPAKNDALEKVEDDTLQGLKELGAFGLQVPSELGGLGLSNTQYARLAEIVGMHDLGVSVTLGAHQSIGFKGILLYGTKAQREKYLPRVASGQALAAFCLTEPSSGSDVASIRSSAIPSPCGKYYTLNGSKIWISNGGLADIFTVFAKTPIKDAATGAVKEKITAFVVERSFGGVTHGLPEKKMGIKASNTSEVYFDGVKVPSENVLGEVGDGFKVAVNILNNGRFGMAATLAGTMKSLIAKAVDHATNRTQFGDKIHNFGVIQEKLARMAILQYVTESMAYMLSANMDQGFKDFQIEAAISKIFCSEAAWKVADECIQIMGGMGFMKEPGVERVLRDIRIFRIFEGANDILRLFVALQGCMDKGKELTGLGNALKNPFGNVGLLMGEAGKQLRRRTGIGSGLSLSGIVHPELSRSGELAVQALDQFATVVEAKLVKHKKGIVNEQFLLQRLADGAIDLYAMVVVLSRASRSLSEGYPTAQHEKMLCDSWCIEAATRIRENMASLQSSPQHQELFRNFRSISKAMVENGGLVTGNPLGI
protocol-notes: Biotinylated SAHB pulldown from MEF lysates, anti-VLCAD Western analysis
Assay type: binding
measurement-parameters: summary, pull-downs and ITC
Bridge positions count the residues as written; N and C are the ends. Square brackets hold non-standard residues; d marks the D form. Ends that are not written are not given here. S5 = C=CCCC[C@](C)(N)C(=O)O
recorded-endpoint: summary of binding properties: binding to VLCAD

// below: answered substances
[[record]]
substance = "V216A: biotinylated MCL-1 SAHBD alanine point mutant V216A (RKALETLRRAGDGV[S5]RNH[S5]TAF; staple 15-19; also: biotinylated, place not given here)"
measured_value = "Binds"

[[record]]
substance = "G217A: biotinylated MCL-1 SAHBD alanine point mutant G217A (RKALETLRRVADGV[S5]RNH[S5]TAF; staple 15-19; also: biotinylated, place not given here)"
measured_value = "Binds"

[[record]]
substance = "MCL-1 SAHBD: hydrocarbon-stapled peptide mimicking the MCL-1 BH3 domain (Stabilized Alpha-Helix of BCL-2 Domain), SEQ ID NO:19 (RKALETLRRVGDGV[S5]RNH[S5]TAF; staple 15-19)"
measured_value = "Binds"

[[record]]
substance = "R214A: biotinylated MCL-1 SAHBD alanine point mutant R214A (RKALETLARVGDGV[S5]RNH[S5]TAF; staple 15-19; also: biotinylated, place not given here)"
measured_value = "Does not bind"

[[record]]
substance = "E211A: biotinylated MCL-1 SAHBD alanine point mutant E211A (RKALATLRRVGDGV[S5]RNH[S5]TAF; staple 15-19; also: biotinylated, place not given here)"
measured_value = "Binds"

[[record]]
substance = "D218A: biotinylated MCL-1 SAHBD alanine point mutant D218A (RKALETLRRVGAGV[S5]RNH[S5]TAF; staple 15-19; also: biotinylated, place not given here)"
measured_value = "Binds"


Lab note: next substance to report on.
// fetch native VLCAD (Mus musculus) summary of binding properties: binding to VLCAD for F228A: biotinylated MCL-1 SAHBD alanine point mutant F228A (RKALETLRRVGDGV[S5]RNH[S5]TAA; staple 15-19; also: biotinylated, place not given here)
Does not bind

====

tested-target: native VLCAD (Mus musculus)
Construct: As for native VLCAD from MEF lysates; endogenous in cells; host or cells: SV-40-transformed wild-type mouse embryonic fibroblasts (lysate)
Sequence (P50544 42-656): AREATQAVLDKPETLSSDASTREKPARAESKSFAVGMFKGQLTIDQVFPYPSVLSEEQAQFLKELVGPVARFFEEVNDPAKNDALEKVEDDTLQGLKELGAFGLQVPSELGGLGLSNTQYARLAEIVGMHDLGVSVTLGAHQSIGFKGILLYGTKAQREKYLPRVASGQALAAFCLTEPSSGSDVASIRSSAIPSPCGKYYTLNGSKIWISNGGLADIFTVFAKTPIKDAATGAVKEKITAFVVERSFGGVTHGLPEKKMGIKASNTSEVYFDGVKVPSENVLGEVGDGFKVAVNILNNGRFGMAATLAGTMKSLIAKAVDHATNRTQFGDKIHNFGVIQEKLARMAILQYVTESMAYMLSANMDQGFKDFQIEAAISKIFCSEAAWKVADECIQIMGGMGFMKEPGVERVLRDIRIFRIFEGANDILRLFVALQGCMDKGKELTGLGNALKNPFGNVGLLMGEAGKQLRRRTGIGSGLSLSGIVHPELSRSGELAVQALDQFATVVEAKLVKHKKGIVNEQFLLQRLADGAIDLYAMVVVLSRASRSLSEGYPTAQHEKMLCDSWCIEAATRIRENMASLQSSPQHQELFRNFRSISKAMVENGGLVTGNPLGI
protocol-notes: Biotinylated SAHB pulldown from MEF lysates, anti-VLCAD Western analysis
Format: binding
measurement-parameters: summary, pull-downs and ITC
Bridge positions count the residues as written; N and C are the ends. Square brackets hold non-standard residues; d marks the D form. Ends that are not written are not given here. S5 = C=CCCC[C@](C)(N)C(=O)O
recorded-endpoint: summary of binding properties: binding to VLCAD

[[record]]
substance = "L213A: biotinylated MCL-1 SAHBD alanine point mutant L213A (RKALETARRVGDGV[S5]RNH[S5]TAF; staple 15-19; also: biotinylated, place not given here)"
tested_target = "native VLCAD (Mus musculus)"
measured_value = "Does not bind"

[[record]]
substance = "H224A: biotinylated MCL-1 SAHBD alanine point mutant H224A (RKALETLRRVGDGV[S5]RNA[S5]TAF; staple 15-19; also: biotinylated, place not given here)"
tested_target = "native VLCAD (Mus musculus)"
measured_value = "Does not bind"

[[record]]
substance = "R207A: biotinylated MCL-1 SAHBD alanine point mutant R207A (AKALETLRRVGDGV[S5]RNH[S5]TAF; staple 15-19; also: biotinylated, place not given here)"
tested_target = "native VLCAD (Mus musculus)"
measured_value = "Does not bind"

[[record]]
substance = "T212A: biotinylated MCL-1 SAHBD alanine point mutant T212A (RKALEALRRVGDGV[S5]RNH[S5]TAF; staple 15-19; also: biotinylated, place not given here)"
tested_target = "native VLCAD (Mus musculus)"
measured_value = "Binds"


Lab note: next substance to report on.
Value lookup for summary of binding properties: binding to VLCAD; key = G219A: biotinylated MCL-1 SAHBD alanine point mutant G219A (RKALETLRRVGDAV[S5]RNH[S5]TAF; staple 15-19; also: biotinylated, place not given here)
Binds
